Origin of measurements: ChEMBL document CHEMBL1132735

- System: HepG2
- Experiment notes: Concentration required to inhibit 50% of host cell replication in human hepatoma (2.2.15) cells used against HBV studies
- Type: functional, cell-based
IC50 for assorted compounds

Smiles	IC50
Nc1ncn(C[C@H]2CO[C@H](CO)O2)c(=O)n1	17 µM
Nc1ccn([C@H]2CC[C@@H](CO)O2)c(=O)n1	> 37 µM
Cc1nn(C[C@H]2CO[C@H](CO)O2)c(=O)[nH]c1=O	> 50 µM

* * *

- Tested on: Human immunodeficiency virus 1
- Experiment notes: Concentration required to inhibit 50% of HIV-IIIB virus replication
- Format: functional, organism-based
pEC50: −log10 of the molar value.

Smiles	Measured on	pEC50
Cc1nn(C[C@@H]2CO[C@H](CO)O2)c(=O)[nH]c1=O	Human immunodeficiency virus 1	< 4.00
Nc1ncn(C[C@@H]2CO[C@@H](CO)O2)c(=O)n1	Human immunodeficiency virus 1	< 4.00
Nc1ncn(C[C@H]2CO[C@@H](CO)O2)c(=O)n1	Human immunodeficiency virus 1	6.00
Nc1ncn(C[C@@H]2CO[C@H](CO)O2)c(=O)n1	Human immunodeficiency virus 1	5.30
Cc1nn(C[C@H]2CO[C@H](CO)O2)c(=O)[nH]c1=O	Human immunodeficiency virus 1	< 4.00
Cc1nn(C[C@H]2CO[C@@H](CO)O2)c(=O)[nH]c1=O	Human immunodeficiency virus 1	< 4.00
Nc1ncn(C[C@H]2CO[C@H](CO)O2)c(=O)n1	Human immunodeficiency virus 1	< 4.00
Cc1nn(C[C@@H]2CO[C@@H](CO)O2)c(=O)[nH]c1=O	Human immunodeficiency virus 1	< 4.00
Cc1cn([C@H]2C=C[C@@H](CO)O2)c(=O)[nH]c1=O	Human immunodeficiency virus 1	6.22

* * *

pEC50 for assorted molecules
- Test system: Hepatitis B virus
- Experiment notes: Concentration required to inhibit 50% of Hepatitis B virus replication
- Type: functional, organism-based
pEC50: −log10 of the molar value.
Reported metric: pEC50

Molecule	Limit operator	Measured number
Cc1nn(C[C@H]2CO[C@@H](CO)O2)c(=O)[nH]c1=O	<	4.70
Cc1cn([C@H]2C=C[C@@H](CO)O2)c(=O)[nH]c1=O [STAVUDINE]	<	4.70
Nc1ncn(C[C@H]2CO[C@@H](CO)O2)c(=O)n1	=	5.20
Cc1nn(C[C@@H]2CO[C@H](CO)O2)c(=O)[nH]c1=O	<	4.70
Nc1ncn(C[C@@H]2CO[C@H](CO)O2)c(=O)n1	=	6.22
Cc1nn(C[C@@H]2CO[C@@H](CO)O2)c(=O)[nH]c1=O	<	4.70
Nc1ccn([C@H]2CC[C@@H](CO)O2)c(=O)n1 [ZALCITABINE]	=	5.64
Nc1ncn(C[C@@H]2CO[C@@H](CO)O2)c(=O)n1	<	4.70
Nc1ncn(C[C@H]2CO[C@H](CO)O2)c(=O)n1	=	5.19
Cc1nn(C[C@H]2CO[C@H](CO)O2)c(=O)[nH]c1=O	<	4.70

* * *

pIC50 for assorted molecules
- Test system: HepG2
- Experiment notes: Concentration required to inhibit 50% of host cell replication in human hepatoma (2.2.15) cells used against HBV studies
- Assay type: functional, cell-based
pIC50: −log10 of the molar value.

Smiles	Limit operator	pIC50
Cc1nn(C[C@H]2CO[C@@H](CO)O2)c(=O)[nH]c1=O	<	4.30
Nc1ncn(C[C@@H]2CO[C@H](CO)O2)c(=O)n1	=	4.77
Cc1nn(C[C@@H]2CO[C@H](CO)O2)c(=O)[nH]c1=O	<	4.30
Nc1ncn(C[C@@H]2CO[C@@H](CO)O2)c(=O)n1	=	4.60
Cc1nn(C[C@@H]2CO[C@@H](CO)O2)c(=O)[nH]c1=O	<	4.30
Nc1ncn(C[C@H]2CO[C@@H](CO)O2)c(=O)n1	=	4.57

* * *

pIC50 for assorted compounds
- System: Vero
- Experiment notes: Concentration required to inhibit 50% of host cell replication in Vero cell used against HSV-1 and HSV-2 studies
- Assay type: functional, cell-based
- Condition: Chlorocebus sabaeus
pIC50: −log10 of the molar value.
Reported metric: pIC50

Compound	Limit operator	Measured number
Cc1nn(C[C@H]2CO[C@H](CO)O2)c(=O)[nH]c1=O	<	4.30
Nc1ncn(C[C@H]2CO[C@@H](CO)O2)c(=O)n1	=	4.52
Nc1ncn(C[C@H]2CO[C@H](CO)O2)c(=O)n1	=	4.51
Cc1nn(C[C@@H]2CO[C@H](CO)O2)c(=O)[nH]c1=O	<	4.30
Cc1nn(C[C@@H]2CO[C@@H](CO)O2)c(=O)[nH]c1=O	<	4.30
Nc1ncn(C[C@@H]2CO[C@@H](CO)O2)c(=O)n1	=	4.55
Nc1nc2c(ncn2COCCO)c(=O)[nH]1 [ACYCLOVIR]	<	4.30
Cc1nn(C[C@H]2CO[C@@H](CO)O2)c(=O)[nH]c1=O	<	4.30
Nc1ncn(C[C@@H]2CO[C@H](CO)O2)c(=O)n1	=	4.92
